- testSummary: AUC (0 to infinity) in Sprague-Dawley rat at 2.5 mg/kg, iv measured for 5 min to 72 hrs by LC-MS/MS analysis
- Assay type: ADME, organism-based
- Design: dose 2.5 mg/kg, route intravenous, time infinity
- conditionNotes: in vivo
propertyMeasured: AUC(0-inf) (ng·h/mL)
Write the value in ng·h/mL as a bare number.

Exercise: Quick one: AUC(0-inf) for Nc1nccc(Oc2ccc(Nc3nccc4[nH]cc(-c5ccc(F)cc5)c(=O)c34)cc2F)c1Cl ?
Solution: 4500

---

- testSummary: Clearance in Sprague-Dawley rat at 1.0 mg/kg, iv measured for 5 min to 72 hrs by LC-MS/MS analysis
- Type: ADME, organism-based
- conditionNotes: in vivo
propertyMeasured: clearance (mL/min/kg)
Write the value in mL/min/kg as a bare number.

Exercise: Quick one: clearance for O=C(Nc1cc(Oc2ccc(Nc3nccc4[nH]cc(-c5ccc(F)cc5)c(=O)c34)cc2F)ccn1)C1CC1 ?
Solution: 1.33

Read the next record carefully.
Exercise: Quick one: clearance for Cn1cc(-c2ccc(F)cc2)c(=O)c2c(Nc3ccc(Oc4ccnc(NC(=O)C5CC5)c4)c(F)c3)nccc21 ?
Solution: 0.167
